# test name: in vivo
# Design: species or system mice
# setup conditions: male, NODSCID 1L2RγKO, mouse, iv, total radioactivity, Spleen uptake
tissue uptake at 72 h values, listed per item
# include the unit after the value

Here is how some molecules turned out for tissue uptake at 72 h.
{"molecule": "COc1ccc(CCCC(=O)NCC(=O)N[C@@H](CCCCNC(=O)CN2CCN(CC(=O)O)CCN(CC(=O)O)CCN(CC(=O)O)CC2)C(=O)NC[C@H]2CC[C@H](C(=O)N[C@@H](Cc3c4ccccc4cc4ccccc34)C(=O)NCCCC[C@H](NC(=O)N[C@@H](COCC(=O)O)C(=O)O)C(=O)O)CC2)cc1 [177Lu-HTK04028, metal not drawn]", "tissue uptake at 72 h": "0.49 %ID/g"}
{"molecule": "COc1ccc(CCCC(=O)NCC(=O)N[C@@H](CCCCNC(=O)CN2CCN(CC(=O)O)CCN(CC(=O)O)CCN(CC(=O)O)CC2)C(=O)NC[C@H]2CC[C@H](C(=O)N[C@@H](Cc3c4ccccc4cc4ccccc34)C(=O)NCCCC[C@H](NC(=O)N[C@@H](CCCC(=O)O)C(=O)O)C(=O)O)CC2)cc1 [177Lu-HTK03170, metal not drawn]", "tissue uptake at 72 h": "0.38 %ID/g"}

Next molecule, please.
Entry O=C(O)CCC[C@H](NC(=O)N[C@@H](CCCCNC(=O)[C@H](Cc1c2ccccc2cc2ccccc12)NC(=O)[C@H]1CC[C@H](CNC(=O)[C@H](CCCCNC(=O)CN2CCN(CC(=O)O)CCN(CC(=O)O)CCN(CC(=O)O)CC2)NC(=O)CNC(=O)CCCc2ccc(Cl)cc2)CC1)C(=O)O)C(=O)O [177Lu-HTK03153, metal not drawn] — recorded tissue uptake at 72 h = 1.03 %ID/g

* * *

# test name: in vivo
# Parameters: species or system mice
# setup conditions: male, NODSCID 1L2RγKO, mouse, iv, total radioactivity, Pancreas uptake
Outcome label depends on tissue uptake at 72 h relative to 0.04 %ID/g: at/above gives Condition met, below gives Condition not met.

Here's what some known entries look like.
{"compound": "COc1ccc(CCCC(=O)NCC(=O)N[C@@H](CCCCNC(=O)CN2CCN(CC(=O)O)CCN(CC(=O)O)CCN(CC(=O)O)CC2)C(=O)NC[C@H]2CC[C@H](C(=O)N[C@@H](Cc3c4ccccc4cc4ccccc34)C(=O)NCCCC[C@H](NC(=O)N[C@@H](COCC(=O)O)C(=O)O)C(=O)O)CC2)cc1 [177Lu-HTK04028, metal not drawn]", "label value": "Condition met"}
{"compound": "COc1ccc(CCCC(=O)NCC(=O)N[C@@H](CCCCNC(=O)CN2CCN(CC(=O)O)CCN(CC(=O)O)CCN(CC(=O)O)CC2)C(=O)NC[C@H]2CC[C@H](C(=O)N[C@@H](Cc3c4ccccc4cc4ccccc34)C(=O)NCCCC[C@H](NC(=O)N[C@@H](CSCC(=O)O)C(=O)O)C(=O)O)CC2)cc1 [177Lu-HTK04048, metal not drawn]", "label value": "Condition met"}
{"compound": "O=C(O)CCC[C@H](NC(=O)N[C@@H](CCCCNC(=O)[C@H](Cc1c2ccccc2cc2ccccc12)NC(=O)[C@H]1CC[C@H](CNC(=O)CN2CCN(CC(=O)O)CCN(CC(=O)O)CCN(CC(=O)O)CC2)CC1)C(=O)O)C(=O)O [177Lu-HTK03149, metal not drawn]", "label value": "Condition not met"}

Q: Could you please find out whether O=C(O)CCC[C@H](NC(=O)N[C@@H](CCCCNC(=O)[C@H](Cc1c2ccccc2cc2ccccc12)NC(=O)[C@H]1CC[C@H](CNC(=O)[C@H](CCCCNC(=O)CN2CCN(CC(=O)O)CCN(CC(=O)O)CCN(CC(=O)O)CC2)NC(=O)CNC(=O)CCCc2ccc(Cl)cc2)CC1)C(=O)O)C(=O)O [177Lu-HTK03153, metal not drawn] has tissue uptake at 72 h that meets 0.04 %ID/g or exceeds it?
A: Condition met
